The origin of these recorded values is PubChem BioAssay (NCI).

- Test system: HOP-92 NSCLC
- protocol: NCI-60 one-dose screen, 48 h (100 = growth as untreated, 0 = no growth, -100 = all killed)
- setup conditions: 10 µM unless noted
This is part of a sample that, as a whole, favours compounds with a hit. Of some 83,000 tested, about 20% had one in any assay.

compound: Nc1nc(N)c2c(n1)NC(c1sc(Cl)nc1Cl)CC(c1ccccc1)=N2 (stereo not given)
measurement units: %
growth: 48.7
--
compound: Cc1ccc(NC(=O)c2[nH]c(SCCN(C)C)nc2-c2ccc(F)cc2)cc1C#Cc1cnc2cccnn12
measurement units: %
growth: 80.4
--
compound: COC(=O)CNS(=O)(=O)c1ccc2c(c1)Cc1cc(S(=O)(=O)NCC(=O)OC)ccc1-2
measurement units: %
growth: 99.6
--
compound: OC(c1cc2c(Cl)cc(Cl)cc2c2cc(C(F)(F)F)ccc12)C1CCCCN1 (stereo not given)
measurement units: %
growth: -88.8
--
compound: CC(C)CC(NC(=O)C(CCCN=C(N)N)NC(=O)OCc1ccccc1)C(=O)NC(CNC(=O)/C=C/c1ccccc1)C(C)C (stereo not given)
measurement units: %
growth: 89.2
--
compound: CCOC(=O)C(Nc1ccccc1)C(=O)OCC
measurement units: %
growth: 72.9
--
compound: CCCCNCC(O)c1cc2c(Cl)cc(Cl)cc2c2cc(C(F)(F)F)ccc12 (stereo not given)
measurement units: %
growth: -89.5
--
compound: O=C(OCc1ccc2c(Cl)cc(Cl)c(O)c2n1)c1cc2ccccc2[nH]1
measurement units: %
growth: -77.3
--
compound: Fc1[nH]nc2ccc([C@@H]3Nc4ccc5[nH]ncc5c4[C@H]4C5CCC(C5)[C@@H]34)cc12 (stereo not given in full)
measurement units: %
growth: 67.3
--
compound: COc1cc2c(cc1OC)C(=O)OC2
measurement units: %
growth: 75.5
